Values compiled from PubChem BioAssay.

Please go through the items and note down their z-score.
# Protocol Notes: PSAC antagonists in infected red cells, primary screen, cell-based, P. falciparum Indochina, OD700, 2 h (AID 1155);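 also: lysis reports solute entry through the parasite surface anion channel PSAC; channel blockers reduce lysis of infected cells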
# Assay Conditions: P. falciparum Indochina infected erythrocytes, osmotic lysis OD700; higher = more signal, called active from +8 up or from −8 down
Lab note: record just the number, no unit beside it.

# input compound: CN1C(=O)C2C(C1=O)C1C=C(CCCO)C2C(c2ccc(CN3CCCC3)cc2)N1C (configuration not stated) ; wanted: its z-score
0.621

# input compound: C[C@H]1Cc2c(-c3ccccc3)nc3c(c2CO1)CN(CCOc1ccccc1)CC3 ; wanted: its z-score
0.407

# input compound: CC(C)C[C@@H]1NC(=O)[C@H]2C[C@@H](C(=O)NCCCCCCN(C)C)[C@@H](c3cccc(OCCO)c3)N2C1=O ; wanted: its z-score
0.594

# input compound: CCCCCCc1nc(CCCc2cc3c(c(CCCCCC)n2)[Si](C(C)C)(C(C)C)O[C@H]3c2ccccc2)cc2c1[Si](C(C)C)(C(C)C)O[C@H]2c1ccccc1 ; wanted: its z-score
0.165

# input compound: COCCOC(=O)N1C(=O)[C@@]2(c3cc(C#CCNC(N)=O)ccc31)[C@H](c1ccc(O)cc1)N1[C@H](c3ccccc3)[C@H](c3ccccc3)OC(=O)[C@H]1[C@@H]2C(=O)N1CCCCCCC1 ; wanted: its z-score
0.656

# input compound: C#C[C@@H]1Oc2ccccc2S(=O)(=O)N2CCC[C@H]12 ; wanted: its z-score
0.676

# input compound: CC(C)NC(=O)[C@@]1(C)c2ccccc2C(=O)N(Cc2cc(F)cc(C(F)(F)F)c2)[C@H]1c1ccc(CO)cc1 ; wanted: its z-score
0.429

----------
# Protocol Notes: small-molecule microarray binders of probe aWnt5a, primary screen, biochemical, biotinylated probe, 635/667 nm fluorescence (AID 1113);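 also: score merges 667 nm fluorescence intensity with signal-to-noise per printed feature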
# Assay Conditions: higher = more signal
Assay Metric: composite z-score
Lab note: record just the number, no unit beside it.

# input molecule: CC(C)=C1C(=O)C(c2ccccc2)=C2CN3C(=O)N(CCc4ccccc4)C(=O)[C@]3(Cc3ccc(F)cc3)[C@H]21 ; wanted: its composite z-score
0.229

# input molecule: O=C1NC(=O)C2C1C=CC(C(O)Cc1ccccc1)N2Nc1ccccn1 (centres undefined) ; wanted: its composite z-score
0.0328

# input molecule: CCOC(=O)CCN1C(=O)[C@H]2[C@H]3[C@H](O)[C@H](O)CC(=NOC[C@@H](O)COCc4ccco4)[C@H]3CC[C@H]2C1=O ; wanted: its composite z-score
-0.152

# input molecule: CN1C(=O)[C@@]2(CCC(=O)OC(C)(C)C)N=C(c3ccc(OCCCO)cc3)O[C@H]2c2ccccc21 ; wanted: its composite z-score
-0.096

----------
# Protocol Notes: basal RPMI8226 viability, no added stimulus, profiling panel, cell-based, calcein-AM fluorescence, 48 h, PK04 Diversity Set (AID 1166);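 also: cells grown under basal conditions without added stimulus; test concentration not given here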
# Assay Conditions: RPMI8226 myeloma viability, higher = more signal
Please go through the items and note down their z-score.
Lab note: record just the number, no unit beside it.

# input compound: CC(C)(C)N1CC=CC23O[C@@H]4C=CCCOC(=O)C4[C@H]2C(=O)N(CCCCCO)[C@@H]3C1=O (some centres undefined) ; wanted: its z-score
0.227

# input compound: CCCNC(=O)[C@@H]1c2ccccc2C(=O)N(c2ccc(C)cn2)[C@H]1c1ccc(CO)cc1 ; wanted: its z-score
-0.0505

# input compound: COC(=O)[C@H](C)NC(=O)CCC1CC(OC(=O)NCc2cccc3ccccc23)CC2(CCCC(COC(=O)NCC3CCCCC3)O2)O1 (some centres undefined) ; wanted: its z-score
0.913

# input compound: CCOC(=O)C[C@H]1[C@H](OC(=O)c2cc3ccccc3oc2=O)[C@@H](NC(=O)c2ccc3ccccc3n2)c2cc(OCCCO)ccc2N1C(=O)c1ccccc1 ; wanted: its z-score
-0.785

----------
# Tested System: Albumin (Bos taurus) (UniProt P02769)
# Sequence (P02769 whole entry, looked up): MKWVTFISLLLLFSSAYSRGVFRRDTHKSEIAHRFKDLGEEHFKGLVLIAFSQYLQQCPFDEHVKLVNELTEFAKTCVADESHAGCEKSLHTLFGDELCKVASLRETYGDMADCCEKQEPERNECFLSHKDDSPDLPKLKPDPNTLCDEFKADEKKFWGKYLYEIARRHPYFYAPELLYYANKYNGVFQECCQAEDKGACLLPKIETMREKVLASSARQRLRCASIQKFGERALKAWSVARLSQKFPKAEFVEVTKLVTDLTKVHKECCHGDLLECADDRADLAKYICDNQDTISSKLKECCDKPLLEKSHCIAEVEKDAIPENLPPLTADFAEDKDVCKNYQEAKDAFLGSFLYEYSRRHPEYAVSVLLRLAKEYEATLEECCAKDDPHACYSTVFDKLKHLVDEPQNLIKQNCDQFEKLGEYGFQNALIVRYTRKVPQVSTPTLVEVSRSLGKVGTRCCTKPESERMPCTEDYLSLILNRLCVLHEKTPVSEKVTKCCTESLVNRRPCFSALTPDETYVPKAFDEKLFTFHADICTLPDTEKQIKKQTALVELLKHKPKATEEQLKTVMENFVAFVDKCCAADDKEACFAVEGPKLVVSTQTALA
# Protocol Notes: bovine serum albumin binders on microarray, profiling panel, artefact control for SMM control protein annotation, biochemical, small-molecule microarray, Alexa647 label, 635/667 nm fluorescence (AID 1118);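 also: score merges 667 nm emission intensity and signal-to-noise per printed compound spot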
# Assay Conditions: BSA-A647 binding, fluorescence 635 nm, higher = more signal
Label scheme for composite z-score: lower than 0.3 is label 0, 0.3 and above is label 1.

Is it the case that C[C@@H]1CCC2C(=O)N(Cc3ccccc3)C[C@@H](O)CN2[C@H]1c1ccc(Br)cc1 (stereo not given in full) has composite z-score reaching or exceeding 0.3?
label 1

Is it the case that COCCOC(=O)N1C(=O)[C@@]2(c3ccccc31)[C@H](C(N)=O)[C@H]1C(=O)O[C@H](c3ccccc3)[C@H](c3ccccc3)N1[C@@H]2c1ccccc1OCCO has composite z-score reaching or exceeding 0.3?
label 1

Is it the case that CCc1cc2c(nc1CC)CCN(CCC(C)=NOC[C@@H](O)COCc1ccco1)C2 has composite z-score reaching or exceeding 0.3?
label 0

Is it the case that CC[C@@H](c1ccccc1)n1c(=O)n2n(c1=O)[C@H]1[C@H](O)[C@@H]3O[C@@H]3C(=NOCC(C)C)[C@H]1CC2 has composite z-score reaching or exceeding 0.3?
label 0

Is it the case that COC(=O)[C@@H]1CCCN1C(=O)[C@@H](C)CO has composite z-score reaching or exceeding 0.3?
label 1

----------
# Tested System: Streptavidin (Streptomyces avidinii)
# Protocol Notes: streptavidin binders on small-molecule microarray, primary screen, artefact control for SMM compound annotation, biophysical, 635/667 nm fluorescence (AID 1147);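 also: signal reflects streptavidin binding to arrayed compounds as a control protein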
# Assay Conditions: streptavidin binding, higher = more signal
Assay Metric: composite z-score

# input compound: COc1ccc(O[C@H]2C=C[C@@H](c3ccccc3)O[C@@H]2COC(=O)CCC(C)=NO[C@@H](C)c2cc(-c3c(C)cc(C)cc3C)no2)cc1 ; wanted: its composite z-score
-0.987

# input compound: CCN1C(=O)[C@H]2[C@H]3[C@H](O)[C@H](O)CC(=NOC(C)CN4CCCCc5nc(C)c(C)cc54)[C@@H]3CC[C@H]2C1=O (stereo partly specified) ; wanted: its composite z-score
-0.0098

# input compound: CC(C)CON=C1C[C@@H](O)[C@@H](O)[C@@H]2[C@@H]3C(=O)N(Cc4ccccc4)C(=O)[C@@H]3CC[C@@H]12 ; wanted: its composite z-score
-0.354

# input compound: O=C1[C@H]2[C@H]3[C@H](O)[C@H](O)CC(=NO[C@@H]4O[C@H](CO)[C@@H](O)[C@H](O)[C@H]4O)[C@H]3CC[C@H]2C(=O)N1Cc1ccccc1 ; wanted: its composite z-score
0.001

# input compound: CCOC(=O)[C@H](Cc1ccccc1)NC(=O)CCC1CC(OC(=O)NCc2ccc3c(c2)OCO3)CC2(CCCC(COC(=O)NCC3CCCCC3)O2)O1 (stereo partly specified) ; wanted: its composite z-score
0.592

# input compound: COc1ccc([Si](C)(C)[C@H]2[C@H](CC(=O)N3CCC[C@H]3CO)O[C@@]3(C(=O)N(Cc4cccc(N5C(=O)COc6ccccc65)c4)c4ccccc43)[C@@H]2C)cc1 ; wanted: its composite z-score
0.0527

----------
# Tested System: Neurogenic locus notch homolog protein 2 (Homo sapiens) (UniProt Q04721)
# Sequence (Q04721 whole entry, looked up): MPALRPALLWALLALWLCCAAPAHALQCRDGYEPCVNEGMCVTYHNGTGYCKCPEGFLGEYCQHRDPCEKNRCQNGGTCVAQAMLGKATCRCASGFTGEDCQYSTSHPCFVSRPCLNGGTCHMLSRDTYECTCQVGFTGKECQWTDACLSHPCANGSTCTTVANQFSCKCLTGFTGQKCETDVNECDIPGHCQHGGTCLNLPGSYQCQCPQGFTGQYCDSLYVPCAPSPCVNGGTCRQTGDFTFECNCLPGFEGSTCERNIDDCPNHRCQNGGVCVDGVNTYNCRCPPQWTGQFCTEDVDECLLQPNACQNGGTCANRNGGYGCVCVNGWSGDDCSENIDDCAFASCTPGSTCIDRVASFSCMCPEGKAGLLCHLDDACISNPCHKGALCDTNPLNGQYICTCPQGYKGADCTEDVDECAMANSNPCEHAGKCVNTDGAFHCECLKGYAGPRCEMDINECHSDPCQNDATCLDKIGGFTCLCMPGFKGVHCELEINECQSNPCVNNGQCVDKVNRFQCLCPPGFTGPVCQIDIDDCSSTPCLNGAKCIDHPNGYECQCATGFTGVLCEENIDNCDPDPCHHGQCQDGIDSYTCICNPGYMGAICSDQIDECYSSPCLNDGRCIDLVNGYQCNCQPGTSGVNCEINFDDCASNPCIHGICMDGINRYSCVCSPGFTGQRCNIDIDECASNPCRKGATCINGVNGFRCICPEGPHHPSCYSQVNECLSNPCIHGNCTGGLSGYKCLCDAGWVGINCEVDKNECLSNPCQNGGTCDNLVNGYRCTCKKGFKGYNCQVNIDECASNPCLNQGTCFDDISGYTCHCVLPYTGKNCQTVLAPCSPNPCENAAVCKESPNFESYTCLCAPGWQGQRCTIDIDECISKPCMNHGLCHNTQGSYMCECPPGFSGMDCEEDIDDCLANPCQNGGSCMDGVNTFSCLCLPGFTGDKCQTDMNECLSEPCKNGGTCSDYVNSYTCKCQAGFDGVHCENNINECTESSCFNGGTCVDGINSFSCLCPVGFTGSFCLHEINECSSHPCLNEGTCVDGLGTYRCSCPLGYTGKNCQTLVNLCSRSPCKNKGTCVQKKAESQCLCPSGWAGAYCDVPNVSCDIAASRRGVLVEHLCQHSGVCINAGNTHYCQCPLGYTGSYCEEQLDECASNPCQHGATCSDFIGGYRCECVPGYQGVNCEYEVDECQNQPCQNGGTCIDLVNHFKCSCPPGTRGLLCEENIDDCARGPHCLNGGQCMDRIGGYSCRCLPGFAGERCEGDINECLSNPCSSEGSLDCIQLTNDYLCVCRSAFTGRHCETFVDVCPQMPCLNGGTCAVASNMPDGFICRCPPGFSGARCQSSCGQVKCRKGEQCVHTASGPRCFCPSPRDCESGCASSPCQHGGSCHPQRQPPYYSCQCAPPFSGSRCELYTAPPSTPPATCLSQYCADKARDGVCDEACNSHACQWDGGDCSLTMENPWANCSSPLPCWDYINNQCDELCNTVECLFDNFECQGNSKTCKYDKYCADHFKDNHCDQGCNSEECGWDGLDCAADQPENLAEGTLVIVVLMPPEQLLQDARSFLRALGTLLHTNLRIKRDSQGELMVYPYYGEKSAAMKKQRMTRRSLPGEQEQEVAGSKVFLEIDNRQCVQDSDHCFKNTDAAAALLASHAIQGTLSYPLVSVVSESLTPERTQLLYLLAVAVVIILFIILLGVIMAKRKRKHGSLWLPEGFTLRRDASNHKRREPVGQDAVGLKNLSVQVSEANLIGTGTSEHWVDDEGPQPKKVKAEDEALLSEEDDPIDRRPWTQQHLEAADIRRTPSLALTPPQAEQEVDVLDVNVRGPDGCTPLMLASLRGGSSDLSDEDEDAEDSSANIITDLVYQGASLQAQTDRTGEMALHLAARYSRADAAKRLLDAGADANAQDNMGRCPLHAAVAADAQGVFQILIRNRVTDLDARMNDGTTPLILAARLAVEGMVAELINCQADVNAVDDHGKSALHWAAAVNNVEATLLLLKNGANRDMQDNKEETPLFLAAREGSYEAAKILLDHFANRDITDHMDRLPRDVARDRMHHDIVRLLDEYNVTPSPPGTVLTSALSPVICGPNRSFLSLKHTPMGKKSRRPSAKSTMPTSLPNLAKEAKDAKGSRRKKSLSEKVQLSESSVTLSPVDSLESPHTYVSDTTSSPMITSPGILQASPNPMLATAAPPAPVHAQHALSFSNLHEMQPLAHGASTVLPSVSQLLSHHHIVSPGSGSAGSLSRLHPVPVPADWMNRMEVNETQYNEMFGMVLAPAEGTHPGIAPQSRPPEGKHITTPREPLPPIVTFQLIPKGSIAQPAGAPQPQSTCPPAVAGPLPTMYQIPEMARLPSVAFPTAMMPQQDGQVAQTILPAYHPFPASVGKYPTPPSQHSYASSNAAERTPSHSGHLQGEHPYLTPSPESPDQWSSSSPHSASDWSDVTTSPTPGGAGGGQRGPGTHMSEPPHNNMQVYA
# Protocol Notes: Notch2 binders on small-molecule microarrays, primary screen, biochemical, small-molecule microarray, 635 nm fluorescence, stem cell growth factors (AID 1073)
# Assay Conditions: Notch2 binding, higher = more signal
Assay Metric: composite z-score
Lab note: record just the number, no unit beside it.

# input compound: O=C(NN=C1C[C@@H](O)[C@@H](O)[C@@H]2[C@@H]3C(=O)N(c4cccc(Oc5ccccc5)c4)C(=O)[C@@H]3CC[C@@H]12)OCc1ccccc1 ; wanted: its composite z-score
0.222

# input compound: COc1ccccc1CN1C(=O)c2ccccc2[C@@H](C(=O)NCC(F)(F)F)[C@@H]1c1ccc(CO)cc1 ; wanted: its composite z-score
0.654

# input compound: CN1C(=O)C2C=CC(C(O)C(c3ccccc3)c3ccccc3)N(NC(=O)OC(C)(C)C)C2C1=O (centres undefined) ; wanted: its composite z-score
1.73

# input compound: CO[C@@H]1COC(=O)CC=C[C@@H](C)[C@H](OC)COC(=O)[C@H](COCc2ccccc2)NC(=O)CC=C[C@H]1C ; wanted: its composite z-score
-0.0992

----------
# Protocol Notes: small-molecule microarray binders of probe aNog, primary screen, biochemical, biotinylated probe, 635/667 nm fluorescence (AID 1115);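 also: probe is biotinylated aNog protein used at 0.15 µg/mL for 1 h at 4 C; z-score combines 667 nm fluorescence of each spot with its signal to noise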
# Assay Conditions: higher = more signal
Assay Metric: composite z-score
Lab note: record just the number, no unit beside it.

# input compound: COc1ccc(O[C@H]2C=C[C@@H](c3ccccc3)O[C@@H]2CON=C[C@@H](C)[C@H](OCc2ccccc2)C(C)C)cc1 ; wanted: its composite z-score
-0.176

# input compound: CCOC(=O)[C@H](CC(C)C)NC(=O)CCC1CC(OC(=O)NCCc2ccc(F)cc2)CC2(CCCC(COC(=O)NCc3ccccc3)O2)O1 (some centres undefined) ; wanted: its composite z-score
-0.183

# input compound: O=C1[C@H]2[C@H]3[C@H](O)[C@H](O)CC(=NO[C@@H]4O[C@H](CO)[C@@H](O)[C@H](O)[C@H]4O)[C@H]3CC[C@H]2C(=O)N1Cc1ccc2c(c1)OCO2 ; wanted: its composite z-score
0.0327

# input compound: CN1C(=O)C2C=CC(C(O)C(c3ccccc3)c3ccccc3)N(NC(=O)OC(C)(C)C)C2C1=O (centres undefined) ; wanted: its composite z-score
2.09

# input compound: COC(=O)[C@H](C)NC(=O)[C@@H](C)CO ; wanted: its composite z-score
0.243

# input compound: Cc1ccc(S(=O)(=O)N[C@@H]2COC(=O)[C@H](C)COC(=O)CC=C[C@H]2C)cc1 ; wanted: its composite z-score
-0.425

# input compound: CCCC[C@H]1OB(O)C[C@H]2C1=C(C)C[C@H]1C(=O)N(C)C(=O)[C@H]12 ; wanted: its composite z-score
0.322

# input compound: COC(=O)C1(C)C=C2C(=C(c3ccccc3)C(=O)C2C)CN1 (centres undefined) ; wanted: its composite z-score
1.74

# input compound: CCOC(=O)C1=CCC(c2cc3ccccc3[nH]2)NC1 (centres undefined) ; wanted: its composite z-score
0.562
